- Test system: P388 mouse leukemia cells
- Procedure details: Life-span-prolonging (anti-tumor) effect on mice subcutaneously inoculated with P388 mouse leukemia cells
- Format: in vivo, mouse (CDF1 female)
- Measurement context: Mus musculus, P388, iv; 0.1 mg/kg i.v. on days 1, 5 and 9; survival vs vehicle; read-out: T/C (%)
Recorded response vs control in vivo at 0.1 mg/kg for the following compounds

# Query smiles, response vs control in vivo at 0.1 mg/kg
rows = [
    ("CCCCCCCCCCCCCCCCCCCCC[C@@H](O)C(=O)N[C@@H](CO[C@H]1O[C@H](CO)[C@H](O)[C@H](O[C@@H]2O[C@@H]([C@H](O)CO)[C@H](O)[C@H]2O)[C@H]1O)[C@H](O)[C@H](O)CCCCCCCCCCCC", "105%"),
    ("CCCCCCCCCCCCCCCCCCCCCC[C@@H](O)C(=O)N[C@@H](CO[C@H]1O[C@H](CO)[C@H](O)[C@H](O[C@@H]2O[C@@H]([C@H](O)CO)[C@H](O)[C@H]2O)[C@H]1O)[C@H](O)[C@H](O)CCCCCCCCCCCC(C)C", "109%"),
    ("CCCCCCCCCCCCCCCCCCCCCCCCCC(=O)N[C@@H](CO[C@H]1O[C@H](CO[C@H]2O[C@H](CO)[C@H](O)[C@H](O)[C@H]2O)[C@@H](O)[C@H](O)[C@H]1O)[C@H](O)[C@H](O)CCCCCCCCCCCCCC", "114%"),
    ("CCCCCCCCCCCCCCCCCCCCCC[C@@H](O)C(=O)N[C@@H](CO[C@H]1O[C@H](CO)[C@H](O)[C@H](O[C@@H]2O[C@@H]([C@H](O)CO)[C@H](O)[C@H]2O)[C@H]1O)[C@H](O)[C@H](O)CCCCCCCCCCCCC(C)C", "116%"),
]

###

- Tested on: lethally irradiated mice
- Procedure details: Radioprotective effect: life-span prolongation of lethally irradiated mice
- Format: in vivo, mouse (BDF1 female)
- Measurement context: day 20; 0.1 mg/kg i.v. days 0, 4, 8; 9 Gy X-ray; groups of 10; 0.1 mg/kg

# Molecule, Number of surviving mice
measured = [
    ("CCCCCCCCCCCCCCCCCCCCCC[C@@H](O)C(=O)N[C@@H](CO[C@H]1O[C@H](CO)[C@H](O)[C@H](O[C@H]2O[C@H](CO)[C@H](O)[C@H](O)[C@H]2NC(C)=O)[C@H]1O[C@H]1O[C@H](CO)[C@@H](O)[C@H](O)[C@H]1O)[C@H](O)[C@H](O)CCCCCCCCCCCC(C)C [Compound 3]", "5 mice"),
    ("CCCCCCCCCCCCCCCCCCCCCC[C@@H](O)C(=O)N[C@@H](CO[C@H]1O[C@H](CO)[C@H](O)[C@H](O[C@H]2O[C@H](CO)[C@H](O)[C@H](O)[C@H]2NC(C)=O)[C@H]1O[C@H]1O[C@H](CO)[C@@H](O)[C@H](O)[C@H]1O)[C@H](O)[C@H](O)CCCCCCCCCCCC(C)C [Compound 5]", "7 mice"),
    ("CCCCCCCCCCCCCCCCCCCCCC[C@@H](O)C(=O)N[C@@H](CO[C@H]1O[C@H](CO)[C@H](O)[C@H](O[C@H]2O[C@H](CO)[C@H](O)[C@H](O)[C@H]2NC(C)=O)[C@H]1O[C@H]1O[C@H](CO)[C@@H](O)[C@H](O)[C@H]1O)[C@H](O)[C@H](O)CCCCCCCCCCCC(C)C [Compound 7]", "6 mice"),
    ("CCCCCCCCCCCCCCCCCCCCCC[C@@H](O)C(=O)N[C@@H](CO[C@H]1O[C@H](CO)[C@H](O)[C@H](O[C@H]2O[C@H](CO)[C@H](O)[C@H](O)[C@H]2NC(C)=O)[C@H]1O[C@H]1O[C@H](CO)[C@@H](O)[C@H](O)[C@H]1O)[C@H](O)[C@H](O)CCCCCCCCCCCCCC [Compound 4]", "8 mice"),
    ("CCCCCCCCCCCCCCCCCCCCCC[C@@H](O)C(=O)N[C@@H](CO[C@H]1O[C@H](CO)[C@H](O)[C@H](O[C@H]2O[C@H](CO)[C@H](O)[C@H](O)[C@H]2NC(C)=O)[C@H]1O[C@H]1O[C@H](CO)[C@@H](O)[C@H](O)[C@H]1O)[C@H](O)[C@H](O)CCCCCCCCCCCCCC [Compound 6]", "8 mice"),
]

###

- Test system: mouse bone marrow cells
- Procedure details: In vitro mouse bone marrow cell-proliferation-promoting effect (3H-TdR uptake)
- Format: cell-based, mouse (BDF1 female)
- Measurement context: 10^-1 μg/ml, 4 days; 5760 min
Consider the following compounds and their measured Uptake of 3H-TdR (% of control), bone marrow cells readings.
Value kind: Uptake of 3H-TdR (% of control), bone marrow cells

# Compound, Study target, Observed value
rows = [
    ("CCCCCCCCCCCCCCCCCCCCCC[C@@H](O)C(=O)N[C@@H](CO[C@H]1O[C@H](CO)[C@H](O)[C@H](O[C@H]2O[C@H](CO)[C@H](O)[C@H](O)[C@H]2NC(C)=O)[C@H]1O[C@H]1O[C@H](CO)[C@@H](O)[C@H](O)[C@H]1O)[C@H](O)[C@H](O)CCCCCCCCCCCC(C)C [Compound 3]", "mouse bone marrow cells", "314 % of control"),
    ("CCCCCCCCCCCCCCCCCCCCCC[C@@H](O)C(=O)N[C@@H](CO[C@H]1O[C@H](CO)[C@H](O)[C@H](O[C@H]2O[C@H](CO)[C@H](O)[C@H](O)[C@H]2NC(C)=O)[C@H]1O[C@H]1O[C@H](CO)[C@@H](O)[C@H](O)[C@H]1O)[C@H](O)[C@H](O)CCCCCCCCCCCC(C)C [Compound 7]", "mouse bone marrow cells", "451 % of control"),
    ("CCCCCCCCCCCCCCCCCCCCCC[C@@H](O)C(=O)N[C@@H](CO[C@H]1O[C@H](CO)[C@H](O)[C@H](O[C@H]2O[C@H](CO)[C@H](O)[C@H](O)[C@H]2NC(C)=O)[C@H]1O[C@H]1O[C@H](CO)[C@@H](O)[C@H](O)[C@H]1O)[C@H](O)[C@H](O)CCCCCCCCCCCCCC [Compound 4]", "mouse bone marrow cells", "512 % of control"),
    ("CCCCCCCCCCCCCCCCCCCCCC[C@@H](O)C(=O)N[C@@H](CO[C@H]1O[C@H](CO)[C@H](O)[C@H](O[C@H]2O[C@H](CO)[C@H](O)[C@H](O)[C@H]2NC(C)=O)[C@H]1O[C@H]1O[C@H](CO)[C@@H](O)[C@H](O)[C@H]1O)[C@H](O)[C@H](O)CCCCCCCCCCCC(C)C [Compound 5]", "mouse bone marrow cells", "330 % of control"),
    ("CCCCCCCCCCCCCCCCCCCCCC[C@@H](O)C(=O)N[C@@H](CO[C@H]1O[C@H](CO)[C@H](O)[C@H](O[C@H]2O[C@H](CO)[C@H](O)[C@H](O)[C@H]2NC(C)=O)[C@H]1O[C@H]1O[C@H](CO)[C@@H](O)[C@H](O)[C@H]1O)[C@H](O)[C@H](O)CCCCCCCCCCCCCC [Compound 8]", "mouse bone marrow cells", "240 % of control"),
    ("CCCCCCCCCCCCCCCCCCCCCC[C@@H](O)C(=O)N[C@@H](CO[C@H]1O[C@H](CO)[C@H](O)[C@H](O[C@H]2O[C@H](CO)[C@H](O)[C@H](O)[C@H]2NC(C)=O)[C@H]1O[C@H]1O[C@H](CO)[C@@H](O)[C@H](O)[C@H]1O)[C@H](O)[C@H](O)CCCCCCCCCCCCCC [Compound 6]", "mouse bone marrow cells", "431 % of control"),
]
